- Test system: NCI/ADR-RES
- PROCEDURE SUMMARY: NCI tumour cell line growth inhibition, 48 h
Activity calls are given as the source filed them. No stated cut-off is given here; in the data, active = GI50 up to about 1.1 µM and inactive = higher.
Thanks in advance; please answer with one of these: label 1 for active, label 0 for inactive

Below, 8 molecules whose answers are already recorded.
MOLECULE: CCCCCCC(O)C(O)CCC(O)C1CCC(CCCCC(O)CC2=CC(C)OC2=O)O1 (stereo unspecified)
CATEGORY LABEL: label 0
--
MOLECULE: CN(C)CCNc1ccc(CO)c2oc3ccc(O)cc3c(=O)c12
CATEGORY LABEL: label 0
--
MOLECULE: N#Cc1c(N)nc(SCc2ccccc2)c(C#N)c1-c1ccc(O)cc1
CATEGORY LABEL: label 0
--
MOLECULE: CN(O)C(=S)c1ccccc1
CATEGORY LABEL: label 1
--
MOLECULE: C1=Cc2nccc3cc4c(c(c23)N1)OCO4
CATEGORY LABEL: label 0
--
MOLECULE: Cc1cn(CC2=NCCN2)c(=O)[nH]c1=O
CATEGORY LABEL: label 0
--
MOLECULE: O=C1Nc2ccc(Br)cc2/C1=N/S(=O)(=O)O
CATEGORY LABEL: label 0
--
MOLECULE: COc1ccc2nc(-c3ccc(OC(=O)N(C)C)cc3)cn2c1
CATEGORY LABEL: label 0

Q: Look up the recorded call for "COc1ccc2c(C)c(Oc3c(Cl)c(Cl)c(O)c(C#N)c3C#N)oc2c1" in this test.
A: label 0

Q: And what about the molecule O=c1[nH]c(N/N=C\C(=N/Nc2nc3ccccc3c(=O)[nH]2)C(O)C(O)C(O)CO)nc2ccccc12 (stereo unspecified) ?
A: label 0

Q: Next molecule: CC(C)(C)N(Cc1ccccc1)C(=O)/C=C\[S+]([O-])c1ccccc1 (stereo unspecified)
A: label 0

---

- Tested on: MDA-N
- PROCEDURE SUMMARY: NCI tumour cell line growth inhibition, 48 h
Calls of active or inactive are those of the source. Cut-off read from the data, not from the text of the source: active = GI50 up to about 1.1 µM and inactive = higher.
RECORDED METRIC: GI50

COMPOUND: CN1CCN([C@H]2C[C@H]3[C@@H]4CC=C5C[C@@H](O)CC[C@]5(C)[C@H]4CC[C@]3(C)C2=O)CC1
GI50: > 100 µM (inactive)
--
COMPOUND: NNC(=O)C(O)C(O)C(=O)NN (stereo not given)
GI50: > 100 µM (inactive)
--
COMPOUND: Cc1cc(=O)oc2c3c(ccc12)OC(c1ccc(Br)cc1)CC3=O (stereo not given)
GI50: 8.13 µM (inactive)

Please look at the following compound next.
Q: Could you tell me which GI50 is on file for "CC(C)=NNc1ncnc2[nH]cnc12" ?
A: 8.79 µM (inactive)

---

- Test system: A498
- PROCEDURE SUMMARY: NCI tumour cell line growth inhibition, 48 h
Activity calls are given as the source filed them. No stated cut-off is given here; in the data, active = GI50 up to about 1.1 µM and inactive = higher.
Log the outcome using a class from label 1 = active, label 0 = inactive

COMPOUND: CCO[C@H]1O[C@@H]2OC3(C)CCC4[C@H](C)CCC([C@H]1C)[C@]42OO3 (some centres not stated)
MEASURED ON: A498
CATEGORY LABEL: label 0
//
COMPOUND: COc1cc(CC(=O)c2cc3c(cc2-c2ccccc2)OCO3)cc(OC)c1OC
MEASURED ON: A498
CATEGORY LABEL: label 0

Q: Record request — test call for CC(C)CC(NC=O)C(=O)NC(Cc1ccccc1)NC(=O)CNC(=O)C(C)NC(=O)OC(C)(C)C (configuration not stated)
A: label 0

Q: Param item: "N#Cc1c(N)nc(SCc2ccccc2)c(C#N)c1-c1ccc(O)cc1"
A: label 0

---

- Test system: Malme-3M
- PROCEDURE SUMMARY: NCI tumour cell line growth inhibition, 48 h
The source made the active and inactive calls. Rule as the data show it: active = GI50 up to about 1.1 µM and inactive = higher.
Entries and their GI50 values follow.

In the examples that follow, each entry is paired with its recorded GI50.
MOLECULE: CC1=NN(C(=O)c2ccc([N+](=O)[O-])cc2)C(=O)C1/N=N/c1ccccc1C(=O)O (stereo not given)
GI50: > 100 µM (inactive)

MOLECULE: Nc1nc2[nH]cnc2c(=O)[nH]1
GI50: > 100 µM (inactive)

MOLECULE: COc1ccc(/C(Cl)=C(\C=O)c2ccc(Cl)c(Cl)c2)cc1OC
GI50: 18.3 µM (inactive)

MOLECULE: O=C1CS(=O)(=O)C(c2cccc(Oc3ccccc3)c2)N1c1ccc(Cl)cc1 (stereo not given)
GI50: 25.4 µM (inactive)

Now look at this entry.
Q: For the molecule CC1C2(C)OC(=N)C(C#N)(C(c3cccc([N+](=O)[O-])c3)O2)C1(C#N)C#N (stereo not given) , what GI50 is on record?
A: 26.2 µM (inactive)

---

- Tested on: RXF 393
- PROCEDURE SUMMARY: NCI tumour cell line growth inhibition, 48 h
The source made the active and inactive calls. No stated cut-off is given here; in the data, active = GI50 up to about 1.1 µM and inactive = higher.
In this exercise, the only acceptable responses are active, inactive

Use these answered entries as a reference point.
MOLECULE: O=S1(=O)c2ccccc2NC(=S)N1c1ccccc1
CATEGORY LABEL: inactive

MOLECULE: C#CC(C)(C)Oc1cc(OC)c2c(=O)c3ccccc3n(C)c2c1
CATEGORY LABEL: inactive

MOLECULE: CC(=O)OC(C)c1cc2c(s1)C(=O)c1scc(C(C)OC(C)=O)c1C2=O (stereo unspecified)
CATEGORY LABEL: active

MOLECULE: Cc1cc2c(C)nn(Cc3ccc(Cl)cc3Cl)c2c(C#N)c1C
CATEGORY LABEL: inactive

MOLECULE: Cc1cc2c(cc1C)N1C(Cl)=C3CCCCC3=C(C#N)C1N2 (stereo unspecified)
CATEGORY LABEL: inactive

// next entry
Q: Just curious, what result did "O=C1Nc2ccc(Br)cc2/C1=N/S(=O)(=O)O" get here?
A: inactive

---

- Tested on: NCI-H226
- PROCEDURE SUMMARY: NCI tumour cell line growth inhibition, 48 h
Calls of active or inactive are those of the source. No stated cut-off is given here; in the data, active = GI50 up to about 1.1 µM and inactive = higher.
Assign a class; possible classes are t for active, f for inactive

// known answers, use as guide
COMPOUND: COc1ccc(C2C(C(=O)c3ccccc3)=C(O)C(O)(CC(=O)c3ccccc3)N2c2ccc(OC)cc2)cc1 (stereo not drawn)
MEASURED ON: NCI-H226
CATEGORY LABEL: f

COMPOUND: CC1CC(C)CN(S(=O)(=O)c2cc(Cl)c(Oc3ccc([N+](=O)[O-])cc3Cl)c(Cl)c2)C1 (stereo not drawn)
MEASURED ON: NCI-H226
CATEGORY LABEL: f

COMPOUND: O=C1CS(=O)(=O)C(c2cccc(Oc3ccccc3)c2)N1c1ccc(Cl)cc1 (stereo not drawn)
MEASURED ON: NCI-H226
CATEGORY LABEL: f

COMPOUND: CC(=O)O[C@@H]1C[C@@]2(C)[C@@H]3CC=C4[C@@H](C[C@H](O)C(=O)C4(C)C)[C@]3(C)C(=O)C[C@]2(C)[C@H]1[C@@](C)(O)C(=O)/C=C/C(C)(C)OC(C)=O
MEASURED ON: NCI-H226
CATEGORY LABEL: t

COMPOUND: CN(C)c1ccc(/C=C2\C[C@H]3[C@@H]4CCc5cc(O)ccc5[C@H]4CC[C@]3(C)C2=O)cc1
MEASURED ON: NCI-H226
CATEGORY LABEL: f

Q: Answer briefly: the call reported for COc1cc2cc(C(=O)N3CC(CCl)c4ccc(NCCN)cc43)[nH]c2c(OC)c1OC (stereo not drawn) in this assay.
A: t

Q: Let us now turn to CCCC/C=C1\CCC(CN2CCCCC2)C1=O (stereo not drawn)
A: f

Q: Also, "O=C(CCCCCCCCCCc1ccccc1)C1=C(O)CCCC1=O" please.
A: f

---

- Tested on: A498
- PROCEDURE SUMMARY: NCI tumour cell line growth inhibition, 48 h
Calls of active or inactive are those of the source. Cut-off read from the data, not from the text of the source: active = GI50 up to about 1.1 µM and inactive = higher.
Just give me one of these, please: Yes = active, No = inactive

Here are 4 compounds together with their reported answers.
COMPOUND: CC(C)C1OC(=O)/C=C/C=C/C=C/C=C/C=C/CC(O)CC(O)CC(O)CC(O)CC(O)CC(O)CC(O)CC(O)/C=C/C1C (stereo not given)
CATEGORY LABEL: No
--
COMPOUND: CC(C)(C)n1c(=O)[nH]n(C2NN=Cc3cccc4cccc2c34)c1=O (stereo not given)
CATEGORY LABEL: No
--
COMPOUND: CC[C@@H](C)[C@@H]1NC(=O)C(C(C)=O)=C1O
CATEGORY LABEL: No
--
COMPOUND: OC(c1ccccc1)(c1ccccc1)c1ccccn1
CATEGORY LABEL: No

Q: Hello, I am checking results. What call was entered for Cc1cn(C2CC(O)C(Cn3nncc3Cn3ccc(=O)[nH]c3=O)O2)c(=O)[nH]c1=O (stereo not given) ?
A: No
